Source of measurements: PubChem BioAssay AID463173

Tested on: DeltatarO mutant
measurement.protocol: S. aureus survival, RN4220 and DeltatarO strains – OD600, teichoic acid synthesis inhibitors, primary screen (AID 463173)
condition.info: S. aureus RN4220 wild type/DeltatarO growth, OD600, 18 h, screened at 18.75 µg/mL (by protocol)
Hit rate of the full screen: of about 52,000 compounds, about 4,300 (8.3%) were called active. Cut-off read from the data, not from the text of the source: active = survival mostly below about 52% (no sharp cut-off); inactive = mostly above about 56%. For the sample, actives were picked, then their nearest neighbours and some compounds at random.
Please reply with one of these outcomes: Y for active, N for inactive

Worked set:
O=C(c1cc2ccc3cccnc3c2[nH]1)N1CCCCC1
N
COc1ccc(Nc2nc(N)c3cc(OC)c(OC)cc3n2)cc1
N
O=C(NCCSCc1ccccc1)C1CCN(S(=O)(=O)Cc2ccccc2)CC1
N
Cc1ccc2nc(Nc3ccc(Br)cc3)nc(-c3ccccc3)c2c1
Y

Just curious, what result did COc1cccc(Nc2nc(-c3ccccc3)c3cc(C)ccc3n2)c1 get here? Y

Would you mind doing Clc1ccc(Nc2nc(-c3ccccc3)c3cc(Cl)ccc3n2)cc1 as well? N

Would you mind doing COc1ccc(-n2c(SCC(=O)N3CCCc4ccccc43)nc3c([nH]c4ccccc43)c2=O)cc1 as well? N

Would you mind doing Cc1cc(C)cc(NC(=O)CSc2nc(-c3ccccc3)c3cc(F)ccc3n2)c1 as well? N
